target-of-assay: Bcl-xL (human, fused to the C-terminus of ADAR2-DD) (human, UniProt Q07817 4-198)
Sequence (Q07817 4-198 limits assumed): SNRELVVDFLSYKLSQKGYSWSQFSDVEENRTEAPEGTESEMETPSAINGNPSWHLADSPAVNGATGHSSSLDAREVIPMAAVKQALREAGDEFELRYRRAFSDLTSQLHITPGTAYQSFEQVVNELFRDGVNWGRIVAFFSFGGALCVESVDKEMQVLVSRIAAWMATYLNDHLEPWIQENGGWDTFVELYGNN
method-description: cell-based or functional assay
Ends that are not written are not given here.

binder	Fold Change (1 µM over 0 µM A-1331852) (fold)
ASGSGTGAPPNLWAAQRYGRELRRMSDEVV (not fully specified) [BAD(V) peptide (Bad point mutant F121V, inserted at the 5' RNA binding loop of ADAR2-DD)]	14.4
ASGSGTGAPPNLWAAQRYGRELRRMSDEFV (not fully specified (N-terminus, C-terminus); also: part of an expressed fusion protein) [Bad(F) peptide (BH3 peptide Bad with its linker, as inserted at the 5' RNA binding loop of ADAR2-DD)]	37
ASGSGTGAPPNLWAAQRYGRELRRMSDELV (not fully specified (N-terminus, C-terminus); also: part of an expressed fusion protein) [Bad(L) peptide (Bad point mutant F121L, inserted at the 5' RNA binding loop of ADAR2-DD)]	23.2
ASGSGTGAPPNLWAAQRYGRELRRMSDEGV (not fully specified)	9.65
